Data provenance: patent US11098010B2

System: HBV rcDNA in HepDE19 cells
experiment_description: HepDE19 assay with bDNA quantitation of HBV rcDNA
Type: cell-based, hepatitis B virus (HBV)
test_parameters: Hepatitis B virus, HepDE19, 168 h, read-out: DE-19 bDNA EC50 (μM), HepDE19 cells, inhibition of rcDNA formation, 7 day incubation, top concentration 25 μM
Counter-ions that a name gives are not always drawn.
Note to self: use label 1 only for EC50 readings below 0.3 µM; a reading exactly at 0.3 µM still gets label 0.

Cc1cc(NC(=O)c2cccc3c2CC[C@@H]3NC(=O)OC[C@@H]2CCC(=O)N2)ccc1F [Compound 25]	label 0
CC(=O)N1CC(F)(F)CC1COC(=O)N[C@H]1CCc2c(C(=O)Nc3ccc(F)c(Cl)c3)ccc(F)c21 (stereo partly shown) [Compound 61]	label 0
O=C1CC(COC(=O)N[C@H]2CCc3c(C(=O)Nc4ccc(F)c(Cl)c4)ccc(F)c32)N1 (stereo partly shown) [Compound 213]	label 0
O=C(N[C@H]1CCc2c(C(=O)Nc3ccc(F)c(Cl)c3)ccc(F)c21)OCCn1cccn1 [Compound 133]	label 1
O=C(N[C@H]1CCc2c(C(=O)Nc3ccc(F)c(Cl)c3)ccc(F)c21)OCc1cccc(C(F)(F)F)n1 [Compound 168]	label 0
Cc1ccnc(N[C@H]2CCc3c(C(=O)Nc4ccc(F)c(Cl)c4)ccc(F)c32)n1 [Compound 160]	label 1

From here, focus on the item given below.
Lab log: compare recorded EC50 with 0.3 µM; is it strictly lower for O=C(Nc1ccc(F)c(Cl)c1)c1ccc(F)c2c1CC[C@@H]2NS(=O)(=O)CCc1ccccn1 [Compound 167, Hydrochloride] ? label 1

----------
Test system: HBV rcDNA in HepDE19 cells
experiment_description: HepDE19 assay with bDNA quantitation of HBV rcDNA
Assay type: cell-based, hepatitis B virus (HBV)
test_parameters: Hepatitis B virus, HepDE19, 168 h, read-out: DE-19 bDNA EC50 (μM), HepDE19 cells, inhibition of rcDNA formation, 7 day incubation, top concentration 25 μM
Structures can show the parent of a compound that is named as a salt.
I'd be grateful if you could share measured EC50 for these entries.
Give bare numbers, in µM.

Solved entries:
O=C(N[C@H]1CCc2c(C(=O)Nc3ccc(F)c(C(F)F)c3)ccc(F)c21)OCc1ccccn1 [Compound 148, Hydrochloride]	0.12
O=C(Nc1ccc(F)c(Cl)c1)c1ccc(F)c2c1CC[C@@H]2Nc1ccncn1	0.63
O=C(N[C@H]1CCc2c(C(=O)Nc3ccc(F)c(Cl)c3)ccc(F)c21)OC[C@@H]1COCCN1 [Compound 180, Hydrochloride]	0.2

In the following, a different compound is considered.
I'd like to know its EC50. The compound in question is `O=C(N[C@H]1CCc2c(C(=O)Nc3ccc(F)c(Cl)c3)ccc(F)c21)OCC(F)(F)F` 0.21

----------
I'd be grateful if you could share measured EC50 for these entries.
Test system: HBV rcDNA in HepDE19 cells
experiment_description: HepDE19 assay with bDNA quantitation of HBV rcDNA
Type: cell-based, hepatitis B virus (HBV)
test_parameters: Hepatitis B virus, HepDE19, 168 h, read-out: DE-19 bDNA EC50 (μM), HepDE19 cells, inhibition of rcDNA formation, 7 day incubation, top concentration 25 μM
Give bare numbers, in µM.

Solved entries:
O=C(N[C@H]1CCc2c(C(=O)Nc3ccc(F)c(Cl)c3)ccc(F)c21)OCCN1CCCCC1	1.1
COC(=O)NC1CSc2c(C(=O)Nc3ccc(F)c(Cl)c3)cccc21 (stereo not drawn) [Compound 37]	0.95

In the following, a different molecule is considered.
I'd like to know its EC50. The molecule in question is `O=C(N[C@H]1CCc2c(C(=O)Nc3ccc(F)c(Cl)c3)ccc(F)c21)OCCN1CCCC1=O` 0.45
